# target: HIV-1 Env of strain AC10.0.29 (HIV-1)
# assay.summary: cell-based or functional assay
Property: neutralization IC50; scope: individual binders
reported.metric: neutralization IC50 (µg/mL)

>>> quantitative_result("NIH45-46^G54Y IgG (antibody, name in Kabat numbering, V domains shown) VH: QVRLSQSGGQMKKPGESMRLSCRASGYEFLNCPINWIRLAPGRRPEWMGWLKPRYGAVNYARKFQGRVTMTRDVYSDTAFLELRSLTSDDTAVYFCTRGKYCTARDYYNWDFEHWGRGAPVTVSS VL: EIVLTQSPATLSLSPGETAIISCRTSQSGSLAWYQQRPGQAPRLVIYSGSTRAAGIPDRFSGSRWGADYNLSISNLESGDFGVYYCQQYEFFGQGTKVQVDI")
0.4
>>> quantitative_result("NIH45-46^G54F IgG (antibody, name in Kabat numbering, V domains shown) VH: QVRLSQSGGQMKKPGESMRLSCRASGYEFLNCPINWIRLAPGRRPEWMGWLKPRFGAVNYARKFQGRVTMTRDVYSDTAFLELRSLTSDDTAVYFCTRGKYCTARDYYNWDFEHWGRGAPVTVSS VL: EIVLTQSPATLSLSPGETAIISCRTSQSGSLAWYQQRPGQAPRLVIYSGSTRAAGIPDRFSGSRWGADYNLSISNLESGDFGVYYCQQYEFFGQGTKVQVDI")
0.3
